src = paper PMC7263589

What log10 of kon was measured for each of the following?
Biological target: T1, IL-23-AVI (human, UniProt Q9NPF7 20-189; P29460 23-328)
T1 construct: IL-23 p19 subunit, human; IL-12/IL-23 p40 subunit, human; Captured on streptavidin chips and beads, so biotinylation of the Avi tag is implied; also called Avi-tagged IL-23; recombinant IL-23
T1 sequence (looked up) 1: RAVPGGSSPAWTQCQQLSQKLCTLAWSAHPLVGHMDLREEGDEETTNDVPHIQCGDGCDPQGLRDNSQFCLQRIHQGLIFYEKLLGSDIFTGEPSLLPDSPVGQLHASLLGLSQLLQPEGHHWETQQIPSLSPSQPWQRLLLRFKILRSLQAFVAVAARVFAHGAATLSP
T1 sequence (looked up) 2: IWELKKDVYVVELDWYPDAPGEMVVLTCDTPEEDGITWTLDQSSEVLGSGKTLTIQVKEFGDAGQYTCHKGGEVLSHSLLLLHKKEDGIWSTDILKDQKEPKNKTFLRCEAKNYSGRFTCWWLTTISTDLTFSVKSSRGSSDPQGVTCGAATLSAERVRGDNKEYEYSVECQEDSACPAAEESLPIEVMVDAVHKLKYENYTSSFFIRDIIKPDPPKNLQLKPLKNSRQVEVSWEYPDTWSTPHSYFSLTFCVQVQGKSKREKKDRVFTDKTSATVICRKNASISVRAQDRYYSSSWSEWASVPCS
Experiment: SPR; Biacore T200, 25°C, 50 μl/min; 2000–9000 RU of IL-23-AVI captured to streptavidin chip, peptides as analyte (3-fold series, up to 30 μM); 10 mM HEPES pH 7.5, 150 mM NaCl, 0.005% P20, 3% DMSO; multi-cycle, single cycle kinetics for 23–652; 1:1 model; n = 1
Conditions: both partners purified
Response schema: value (number) is log10 of kon in units of M⁻¹ s⁻¹.

Reported log10 of kon of QKITQCVYIIWTYPCLLNDV (selected from a peptide phage library against IL-23; Two cysteines; source: synthetic peptide (CPC Scientific)) [peptide 23–441 (free, chemically synthesized)] : 5.28

Reported log10 of kon of HVPDPCWFGLLCDVLNS (selected from a peptide phage library against IL-23; Two cysteines; also called FGL-containing peptide; source: synthetic peptide (CPC Scientific)) [peptide 23–644 (free, chemically synthesized)] : 4.69

Reported log10 of kon of FTKEIDSWWLSLMSS (selected from a peptide phage library against IL-23; No cysteines, 15 residues; source: synthetic peptide (CPC Scientific)) [peptide 23–437 (free, chemically synthesized)] : 5.25

Reported log10 of kon of DTLTKSFCYFGTWCQMYGST (selected from a peptide phage library against IL-23; Two cysteines; also called FGLT-containing peptide; FGL-containing peptide; source: synthetic peptide (CPC Scientific)) [peptide 23–652 (free, chemically synthesized)] : 4.56

Reported log10 of kon of GLRERCVRNYGHEFCQNWYW (selected from a peptide phage library against IL-23; Two cysteines; source: synthetic peptide (CPC Scientific)) [peptide 23–446 (free, chemically synthesized)] : 6.59
